Parameter: CC50. Scope: all listed entries.
Protocol Notes: Cytotoxicity against human HTB-54 cells after 72 hrs by MTT assay
Format: functional
Assay Setup: HTB-54, 72 h, read-out: LC50 (the source's name)
Measured Property: CC50

[
  {
    "Compound": "[Se]=C=NCc1ccccc1 [BENZYLISOSELENOCYANATE]",
    "Observed": "66.1 µM"
  },
  {
    "Compound": "COc1ccc(CNc2nc([SeH])nc3ccccc23)cc1",
    "Observed": "> 100 µM"
  },
  {
    "Compound": "CCCCC[Se]c1nc([Se]CCCCC)c2ccccc2n1",
    "Observed": "> 100 µM"
  },
  {
    "Compound": "CSc1nc(NCCc2ccccc2)c2ccccc2n1",
    "Observed": "> 100 µM"
  }
]
